- experiment-summary: Probe fluorescence ratio response to palmitoleic acid relative to ADIFAB2
- Assay type: binding
- recorded-conditions: Table 5
property-label: ΔR/DRAΔ2 POA
# answer = number (no unit)

In plain terms, L2P23A4: FABP probe, substitutions M18V G31I F55L A73V vs SEQ ID NO: 2 (protein, listed as Rattus norvegicus, PEPTIDE (1)...(131) wild-type rat intestinal fatty acid binding protein) AFDGTWKVDRNENYEKFVEKMGINVVKRKLIAHDNLKLTITQEGNKFTVKESSNLRNIDVVFELGVDFAYSLVDGTELTGTWTMEGNKLVGKFKRVDNGKELIAVREISGNELIQTYTYEGVEAKRIFKKE has a documented ΔR/DRAΔ2 POA of 2.8

Values compiled from patent US20060257938A1.
